Values from ChEMBL document CHEMBL3988442

Target: Sialic acid-binding Ig-like lectin 9 (Homo sapiens) (UniProt Q9Y336)
Sequence (Q9Y336 whole entry): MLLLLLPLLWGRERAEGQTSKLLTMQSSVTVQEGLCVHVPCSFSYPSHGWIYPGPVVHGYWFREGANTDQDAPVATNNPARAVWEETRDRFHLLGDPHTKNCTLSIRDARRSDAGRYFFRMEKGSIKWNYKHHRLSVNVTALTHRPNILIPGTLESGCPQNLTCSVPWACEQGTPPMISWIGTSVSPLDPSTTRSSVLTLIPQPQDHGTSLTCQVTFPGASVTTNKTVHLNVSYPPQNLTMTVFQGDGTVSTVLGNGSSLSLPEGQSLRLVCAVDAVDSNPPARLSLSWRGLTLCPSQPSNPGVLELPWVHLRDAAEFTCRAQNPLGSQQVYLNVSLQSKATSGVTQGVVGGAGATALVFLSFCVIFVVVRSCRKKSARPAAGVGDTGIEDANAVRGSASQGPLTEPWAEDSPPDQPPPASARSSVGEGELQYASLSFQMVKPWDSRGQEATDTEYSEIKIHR
Test: Hs-Siglec9 ALPHAscreen SOP 20170721
Set-up: scale not given: direction of the effect not stated beside the values
Details: 10 µM
quantity-measured: Percent Effect (%)
Numbers only, in %.

> print(dat)
                                   compound  unit.name  recorded.measurement
1  CCOCC1CN(S(C)(=O)=O)Cc2cnn(CC3CCOCC3)c21 (stereo not drawn)          %                -0.726
2  O=C(CN1CCCC(c2ccc(C(=O)O)cc2)C1)NC1CC1 (stereo not drawn)          %                   8.6

Can you share its Percent Effect? I mean this compound: COc1cc(CNCc2ccc(C(C)O)cc2)cc2c1OCO2 (stereo not drawn)
10.4

###

Biological target: Ubiquitin-activating enzyme e1, putative (Leishmania donovani (strain BPK282A1))
Assay: Leishmania donovani Ubiquitin Activating Enzyme (LdE1)
Type: functional
Design: scale not given: direction of the effect not stated beside the values
Conditions: 30 µM
Potency and affinity values are given separately.
Use T when the recorded Percent Effect is no lower than 10%; use F when it is lower.

Here are 5 compounds together with their reported answers.
> print(dat)
                                   compound  class.label
1    COc1nc(C)cc(C)c1CNC(=O)N(C)Cc1cnn(C)c1            T
2  Cc1nc(C)n(CC2CN(CCOc3ccccc3F)CCO2)n1 (stereo not given)            F
3  CCN1Cc2c(C(=O)NCC3CC3)ncn2-c2ccccc2S1(=O)=O            F
4   COCCn1ccc(NC(=O)Nc2ccc(C(N)=O)c(F)c2)n1            F
5  COc1ccc(CN2CCN(C(C)c3nc(C4CC4)no3)CC2)cc1 (stereo not given)            T

Has c1ccc(CN2CCc3nnc(CN4CCCCC4)n3CC2)nc1 a recorded Percent Effect greater than or equal to 10%?
F

Has CC(C)Oc1ncccc1CNC(=O)C1CCCN(C(=O)C2CC2)C1 (stereo not given) a recorded Percent Effect greater than or equal to 10%?
F

###

Assign Percent Effect to each entry below.
Biological target: Chromo domain-containing protein 1 (Saccharomyces cerevisiae (strain ATCC 204508 / S288c) (Baker's yeast))
Assay: ScCHD-1 Enzyme Inhibition Assay; also: in the data most compounds retested in dose-response had high values
Assay type: functional
Parameters: scale not given: direction of the effect not stated beside the values
Conditions: 30 µM
Numbers only, in %.

> print(dat)
                                   compound  quantity.measured  recorded.measurement
1  CC1CCCCN1Cc1ccc(-c2ccccc2C(=O)O)cc1 (stereo unspecified)     Percent Effect                 -21.8

Could you tell me Percent Effect for each of these compounds? They are listed below.
1. CCCN(CCO)C(=O)C1CCC(=O)N(CCc2ccc(Cl)cc2)C1 (stereo unspecified)
2. O=C(NCCn1ccc(-c2ccccn2)n1)c1ccncc1
3. O=C(NCc1ccco1)C1CCCN1Cc1nc(-c2ccco2)no1 (stereo unspecified)

[-5.01, -3.21, -0.371]

###

Molecular target: Arginase-2, mitochondrial (Homo sapiens) (UniProt P78540)
Sequence (P78540 whole entry): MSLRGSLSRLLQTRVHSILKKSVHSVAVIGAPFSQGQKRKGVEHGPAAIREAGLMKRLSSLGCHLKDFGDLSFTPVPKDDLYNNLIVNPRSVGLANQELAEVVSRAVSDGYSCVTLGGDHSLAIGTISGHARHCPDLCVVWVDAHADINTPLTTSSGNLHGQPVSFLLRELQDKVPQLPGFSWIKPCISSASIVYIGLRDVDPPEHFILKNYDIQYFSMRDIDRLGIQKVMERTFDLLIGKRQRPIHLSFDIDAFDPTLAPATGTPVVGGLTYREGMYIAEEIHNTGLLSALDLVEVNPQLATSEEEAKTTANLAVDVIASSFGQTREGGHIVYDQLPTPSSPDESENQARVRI
Experiment: in vitro enzyme assay to detect the production of urea directly proportional to the activity of Arginase II; also: in the data most compounds retested in dose-response had high values
Type: functional
Set-up: scale not given: direction of the effect not stated beside the values
Conditions: 33.3 µM
Assign Percent Effect to each entry below.
Give bare numbers, in %.

> print(dat)
                                   molecule  unit.name  recorded.measurement
1  O=C(NCCNc1ncccn1)C1CC(=O)N(CC(F)(F)F)C1 (configuration not stated)          %                 -4.81
2  Cc1cnn(CC2CCCN2CC(=O)N(C)CCC#N)c1 (configuration not stated)          %                -0.476
3  CC(C)CCC(=O)NC(C)c1nnc2n1CCCCC2 (configuration not stated)          %                -0.205
4            COCCNC(=O)Nc1ccc(F)c(C(N)=O)c1          %                 0.615
5  CCOCC1CN(C(=O)N(C)C)Cc2nn(C)cc21 (configuration not stated)          %                 -40.3
6      Cc1nnc(CN2CCN(CCOc3ccccc3C#N)CC2)n1C          %                  1.44

Could you tell me Percent Effect for each of these molecules? They are listed below.
1. Cc1ncc2c(n1)CCN(Cc1nc3ccccc3o1)C2
2. CN1CCN(C(=O)c2cccc(OCc3cscn3)c2)CC1

1. -6.21
2. -0.41
